Answer each item with its documented IC50.
Test system: HL-60
Test: Cytotoxicity against human HL60 cells after 72 hrs by XTT method
Format: functional, cell-based
Details: HL-60, 72 h

Guide cases for IC50, answers given:
- COc1cc(/C(=N/O)c2ccc3c(ccn3C)c2)cc(OC)c1OC: 0.11 µM
- CCn1ccc2cc(C(=O)c3cc(OC)c(OC)c(OC)c3)ccc21: 0.034 µM
- CCn1ccc2cc(/C(=N\N)c3cc(OC)c(OC)c(OC)c3)ccc21: > 1 µM
- CCn1ccc2cc(/C(=N/OC(C)=O)c3cc(OC)c(OC)c(OC)c3)ccc21: > 1 µM
- CCn1ccc2cc(/C(=N\OC(C)=O)c3cc(OC)c(OC)c(OC)c3)ccc21: > 1 µM
- COc1cc(/C(=N/NC(C)=O)c2ccc3c(ccn3C)c2)cc(OC)c1OC: > 1 µM
- CCn1ccc2cc(/C(=N\O)c3cc(OC)c(OC)c(OC)c3)ccc21: > 1 µM
- COc1cc(/C(=N\OC(C)=O)c2ccc3c(ccn3C)c2)cc(OC)c1OC: > 10 µM

Okay, here is my list. What is IC50 for each of these?
1. COc1cc(/C(=N\OC(=O)OC(C)(C)C)c2ccc3c(ccn3C)c2)cc(OC)c1OC
2. CN/N=C(/c1cc(OC)c(OC)c(OC)c1)c1ccc2c(ccn2C)c1
3. COc1cc(/C(=N/OC(C)=O)c2ccc3c(ccn3C)c2)cc(OC)c1OC
4. COc1cc(/C(=N/N)c2ccc3c(ccn3C)c2)cc(OC)c1OC
5. COc1cc(C(OC(C)=O)c2ccc3c(ccn3C)c2)cc(OC)c1OC (stereo not drawn)
6. COc1cc(/C(=N/OC(=O)OC(C)(C)C)c2ccc3c(ccn3C)c2)cc(OC)c1OC
7. COc1cc(C(O)c2ccc3c(ccn3C)c2)cc(OC)c1OC (stereo not drawn)

["> 1 µM", "> 1 µM", "> 10 µM", "> 10 µM", "0.24 µM", "> 1 µM", "> 10 µM"]

Okay, here is my list. What is IC50 for each of these?
1. CCn1ccc2cc(C(O)c3cc(OC)c(OC)c(OC)c3)ccc21 (stereo not drawn)
2. COc1ccc(C(=O)c2cc(OC)c(OC)c(OC)c2)cc1O [PHENSTATIN]

> 10 µM
1.8 µM

Noted IC50 for CCn1ccc2cc(C(OC(C)=O)c3cc(OC)c(OC)c(OC)c3)ccc21 (stereo not drawn) , tested on HL-60: > 10 µM

* * *

Answer each item with its documented pIC50.
System: HeLa
Assay: Cytotoxicity against human HeLa cells after 72 hrs by XTT method
Assay type: functional, cell-based
Answers are plain numbers, as −log10 of the molar value.

Guide cases for pIC50, answers given:
* COc1cc(/C(=N/NC(C)=O)c2ccc3c(ccn3C)c2)cc(OC)c1OC | 5.64
* COc1cc(C(=O)c2ccc3c(ccn3C)c2)cc(OC)c1OC | 7.47
* COc1cc(C(OC(C)=O)c2ccc3c(ccn3C)c2)cc(OC)c1OC (stereo unspecified) | 8.19
* COc1cc(/C(=N/O)c2ccc3c(ccn3C)c2)cc(OC)c1OC | 6.44

Per the record, COc1ccc(C(=O)c2cc(OC)c(OC)c(OC)c2)cc1O [PHENSTATIN] has pIC50 of 7.52

* * *

System: HeLa
Experiment: Cytotoxicity against human HeLa cells after 72 hrs by XTT method
Assay type: functional, cell-based
pIC50: −log10 of the molar value.
value_kind: pIC50

Guide cases for pIC50, answers given:
- COc1cc(C(O)c2ccc3c(ccn3C)c2)cc(OC)c1OC (stereo unspecified): < 6.00
- CCn1ccc2cc(/C(=N/OC(C)=O)c3cc(OC)c(OC)c(OC)c3)ccc21: < 5.00
- COc1cc(/C(=N/OC(=O)OC(C)(C)C)c2ccc3c(ccn3C)c2)cc(OC)c1OC: < 6.00
- CCn1ccc2cc(/C(=N\N)c3cc(OC)c(OC)c(OC)c3)ccc21: < 6.00

Okay, here is my list. What is pIC50 for each of these?
1. CCn1ccc2cc(C(O)c3cc(OC)c(OC)c(OC)c3)ccc21 (stereo unspecified)
2. CCn1ccc2cc(C(OC(C)=O)c3cc(OC)c(OC)c(OC)c3)ccc21 (stereo unspecified)

1: < 6.00; 2: < 6.00

meta.source: ChEMBL document CHEMBL1150422
